Assay Target: Human SGLT1 (hSGLT1) (Homo sapiens (Human))
Sequence (P13866 whole entry): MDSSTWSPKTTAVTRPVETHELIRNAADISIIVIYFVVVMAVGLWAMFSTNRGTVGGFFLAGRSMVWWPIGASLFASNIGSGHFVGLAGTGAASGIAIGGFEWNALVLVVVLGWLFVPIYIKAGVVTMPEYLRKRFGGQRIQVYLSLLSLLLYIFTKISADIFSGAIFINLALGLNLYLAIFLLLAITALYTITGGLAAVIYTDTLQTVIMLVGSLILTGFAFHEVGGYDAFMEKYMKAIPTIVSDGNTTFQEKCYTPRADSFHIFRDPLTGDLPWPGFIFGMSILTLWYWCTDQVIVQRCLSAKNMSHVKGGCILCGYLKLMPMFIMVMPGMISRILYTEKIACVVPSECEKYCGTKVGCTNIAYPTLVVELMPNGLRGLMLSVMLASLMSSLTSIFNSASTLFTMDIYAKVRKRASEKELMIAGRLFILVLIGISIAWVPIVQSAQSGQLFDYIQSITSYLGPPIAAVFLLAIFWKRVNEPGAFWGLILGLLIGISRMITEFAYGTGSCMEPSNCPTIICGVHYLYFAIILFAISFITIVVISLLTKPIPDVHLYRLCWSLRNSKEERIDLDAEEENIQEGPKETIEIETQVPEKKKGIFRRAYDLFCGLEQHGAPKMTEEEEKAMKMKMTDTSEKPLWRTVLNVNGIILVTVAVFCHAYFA
Method Summary: Inhibitory effects on human SGLT1 activities (14C-AMG uptake, sodium-dependent glucose transport assay)
Condition Set: 37° C. for 2 h, single determinations
Protocol: Test 3: Inhibitory Effects on Human SGLT1 Activities For sodium-dependent glucose transport assay, cells expressing hSGLT2 were seeded into a 96-well culture plate at a density of 5×10^4 cells/well in RPMI medium 1640 containing 10% fetal bovine serum. The cells were used 1 day after plating. […] Cells were washed twice with washing buffer (pretreatment buffer containing 10 mM AMG at room temperature) and then the radioactivity was measured using a liquid scintillation counter. […]
Quantity Measured: pIC50
Keep it numeric: pIC50 is minus log10 of the concentration in mol/L.

See these solved cases before continuing.
Requested field: pIC50. Item: CCc1ccc(Cc2cc([C@@H]3O[C@H](CO)[C@@H](O)[C@H](O)[C@H]3O)c3c(c2Cl)CCC3)cc1 [Compound E033]
7.24

// repeat for CCc1ccc(Cc2cc([C@@H]3O[C@H](CO)[C@@H](O)[C@H](O)[C@H]3O)c3c(c2Cl)OCCO3)cc1 [Compound E016] and report
7.08

// repeat for OC[C@H]1O[C@@H](c2cc(Cc3ccc(C4CC4)cc3)c(Cl)c3c2OCCO3)[C@H](O)[C@@H](O)[C@@H]1O [Compound E027] and report
7.38

// repeat for CCOc1ccc(Cc2cc([C@@H]3O[C@H](SC)[C@@H](O)[C@H](O)[C@H]3O)c3c(c2Cl)OCO3)cc1 [Compound E051] and report
7.20

// repeat for COc1ccc(Cc2cc([C@@H]3O[C@H](CO)[C@@H](O)[C@H](O)[C@H]3O)c3c(c2C(F)F)CCC3)cc1 [Compound E032] and report
7.78

// repeat for COc1ccc(Cc2cc([C@@H]3O[C@H](CO)[C@@H](O)[C@H](O)[C@H]3O)c3c(c2Cl)CCCC3)cc1 [Compound E038] and report
8.02

// repeat for COc1ccc(Cc2cc([C@@H]3O[C@H](CO)[C@@H](O)[C@H](O)[C@H]3O)c3c(c2Cl)CCC3)cc1 [Compound E004] and report
7.43

// repeat for Cc1ccc(Cc2cc([C@@H]3O[C@H](CO)[C@@H](O)[C@H](O)[C@H]3O)c3c(c2Cl)CCO3)cc1 [Compound E046] and report
7.52

Others:
Requested field: pIC50. Item: CSc1ccc(Cc2cc([C@@H]3O[C@H](CO)[C@@H](O)[C@H](O)[C@H]3O)c3c(c2Cl)OCCO3)cc1 [Compound E050]
7.63

// repeat for CCOc1ccc(Cc2cc([C@@H]3O[C@H](CO)[C@@H](O)[C@H](O)[C@H]3O)c3c(c2Cl)CCCC3)cc1 [Compound E039] and report
7.48

// repeat for CCOc1ccc(Cc2cc([C@@H]3O[C@H](CO)[C@@H](O)[C@H](O)[C@H]3O)c3c(c2Cl)C(C)CO3)cc1 (stereo partly drawn) [Compound E031] and report
6.71

// repeat for COc1ccc(Cc2cc([C@@H]3O[C@H](SC)[C@@H](O)[C@H](O)[C@H]3O)c3c(c2Cl)CCCO3)cc1 [Compound E029] and report
7.68

// repeat for CCOc1ccc(Cc2cc([C@@H]3O[C@H](CO)[C@@H](O)[C@H](O)[C@H]3O)c3c(c2C)OCO3)cc1 [Compound E065] and report
6.81

// repeat for Cc1ccc(Cc2cc3c(c([C@@H]4O[C@H](CO)[C@@H](O)[C@H](O)[C@H]4O)c2)CCC3)cc1 [Compound E041] and report
7.04

// repeat for CCc1ccc(Cc2cc([C@@H]3O[C@H](CO)[C@@H](O)[C@H](O)[C@H]3O)c3c(c2C)OCO3)cc1 [Compound E064] and report
7.42

// repeat for CCOc1ccc(Cc2cc([C@@H]3O[C@H](CO)[C@@H](O)[C@H](O)[C@H]3O)c3c(c2Cl)CCC3)cc1 [Compound E006] and report
6.94
